assay system: ERα (Homo sapiens, UniProt P03372)
Sequence (P03372 whole entry): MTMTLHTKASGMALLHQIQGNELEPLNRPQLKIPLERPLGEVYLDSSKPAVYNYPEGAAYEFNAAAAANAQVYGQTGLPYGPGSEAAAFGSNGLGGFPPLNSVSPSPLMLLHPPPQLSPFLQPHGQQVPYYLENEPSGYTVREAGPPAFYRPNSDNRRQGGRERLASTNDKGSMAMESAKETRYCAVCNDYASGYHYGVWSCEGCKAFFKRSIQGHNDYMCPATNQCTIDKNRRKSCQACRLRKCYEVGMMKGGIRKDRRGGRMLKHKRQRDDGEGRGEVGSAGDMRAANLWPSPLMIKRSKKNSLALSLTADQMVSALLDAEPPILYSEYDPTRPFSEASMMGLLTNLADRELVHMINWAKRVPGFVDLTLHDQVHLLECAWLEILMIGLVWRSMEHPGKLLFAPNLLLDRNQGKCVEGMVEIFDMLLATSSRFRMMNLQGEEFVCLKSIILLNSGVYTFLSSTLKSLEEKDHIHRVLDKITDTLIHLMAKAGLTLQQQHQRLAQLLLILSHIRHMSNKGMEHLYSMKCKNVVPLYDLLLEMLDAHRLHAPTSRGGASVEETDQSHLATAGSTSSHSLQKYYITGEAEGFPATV
test name: Degradation of ERα in T-47D cells (immunoblotting, 4 h)
Type: cell-based
Parameters: host or cells: T-47D
measurement setup: 10nM compound
// reported Degradation rate (%) of ERα in T-47D cells per item
Express the result in % but write the number alone.

# molecule, measured number
measured = [
    ("O=C1CCC(N2Cc3ccc4c(c3C2=O)OCC42CCN(C3CCN(C(=O)C4CCN(c5ccc([C@@H]6c7ccc(O)cc7CC[C@@H]6c6ccccc6)cc5)CC4)CC3)CC2)C(=O)N1 (some centres unmarked) [A94]", 80),
    ("O=C1CCC(N2Cc3c(ccc4c3OCC43CCN(C4CCN(C5CC6(CCN(c7ccc([C@@H]8c9ccc(O)cc9CC[C@@H]8c8ccccc8)cc7)CC6)C5)[C@H](C(=O)NC5CC5)C4)CC3)C2=O)C(=O)N1 (some centres unmarked) [H41]", 83),
    ("O=C1CCC(N2Cc3c(ccc4c3OCC43CCN(C4CCN(C5CC6(CCN(c7ccc([C@@H]8c9ccc(O)cc9CC[C@@H]8c8ccccc8)cc7)CC6)C5)[C@@H](C(=O)N5CC(F)(F)C5)C4)CC3)C2=O)C(=O)N1 (some centres unmarked) [A98]", 83),
    ("CN(C)C(=O)[C@@H]1CC(N2CCC3(CC2)COc2c3ccc3c2CN(C2CCC(=O)NC2=O)C3=O)CCN1C(=O)C1CCN(c2ccc([C@@H]3c4ccc(O)cc4CC[C@@H]3c3ccccc3)cc2)CC1 (some centres unmarked) [K29]", 79),
]

Notebook: pull reported Degradation rate (%) of ERα in T-47D cells for ERα (Homo sapiens, UniProt P03372), entry O=C1CCC(N2Cc3c(ccc4c3OCC43CCN(C(=O)C4CCC(CN5CCC(C#Cc6ccc(C7c8ccc(O)cc8CCC7c7ccccc7)cc6)CC5)CC4)CC3)C2=O)C(=O)N1 (centres unmarked) [C6]
49

###

assay system: ERα (Homo sapiens)
test name: Degradation of ERα in MCF-7 cells (immunoblotting, 4 h)
Format: cell-based
measurement setup: 1nM compound
Classification field: Criterion met = Degradation rate (%) of ERα in MCF-7 cells at or over 20%; Criterion not met = Degradation rate (%) of ERα in MCF-7 cells under 20%.

Field: example entries. Status: answers known.
# compound, answer label
measured = [
    ("O=C1CCC(N2Cc3c(ccc4c3OCC43CCN(C4CCN(C5CCN(c6ccc([C@@H]7c8ccc(O)cc8CC[C@@H]7c7ccccc7)cc6)CC5)CC4F)CC3)C2=O)C(=O)N1 (some centres unmarked)", "Criterion met"),
    ("O=C1CCC(N2Cc3c(ccc4c3OCC43CCN(C(=O)CN4CCC5(CC4)CN(c4ccc([C@@H]6c7ccc(O)cc7CC[C@@H]6c6ccccc6)cc4)C5)CC3)C2=O)C(=O)N1 (some centres unmarked)", "Criterion met"),
    ("O=C1CCC(N2Cc3c(ccc4c3OCC43CCN(C(=O)CC4CCN(c5ccc([C@@H]6c7ccc(O)cc7CC[C@@H]6c6ccccc6)cc5)CC4)CC3)C2=O)C(=O)N1 (some centres unmarked) [H16]", "Criterion not met"),
]

Pending compound:
Please indicate if the recorded Degradation rate (%) of ERα in MCF-7 cells for COC(=O)[C@@H]1C[C@H](N2CCC3(CC2)COc2c3ccc3c2CN(C2CCC(=O)NC2=O)C3=O)CCN1C1CC2(CCN(c3ccc([C@@H]4c5ccc(O)cc5CC[C@@H]4c4ccccc4)cc3)CC2)C1 (some centres unmarked) meets or exceeds 20%.
Criterion met

###

System: T-47D cells
test name: Inhibition of cell proliferation in T-47D cells (CCK-8, 6 days)
Format: cell-based
measurement setup: 6 days of treatment, Table 3
# label = T if IC50 < 10 nM else F

# molecule, answer label
records = [
    ("CCN(CC1CCN(c2ccc([C@@H]3c4ccc(O)cc4CC[C@@H]3c3ccccc3)cc2)CC1)[C@H]1CC[C@@H](C(=O)N2CCC3(CC2)COc2c3ccc3c2CN(C2CCC(=O)NC2=O)C3=O)CC1 (stereo partly shown)", "T"),
    ("C[C@@H]1Cc2c(ccc3[nH]ncc23)[C@@H](c2c(F)cc(N3CCN(C[C@H]4CC[C@H](C(=O)N5CCC6(CC5)COc5c6ccc6c5CN(C5CCC(=O)NC5=O)C6=O)CC4)CC3)cc2F)N1CC(F)F (stereo partly shown)", "F"),
    ("C[C@@H]1Cc2c(ccc3[nH]ncc23)C(c2ccc(N3CCC4(CCC(N5CCC6(CC5)COc5c6ccc6c5CN(C5CCC(=O)NC5=O)C6=O)CC4)CC3)cn2)N1CC(F)(F)F (stereo partly shown)", "F"),
    ("C[C@@H]1Cc2c(ccc3[nH]ncc23)C(c2c(F)cc(N3CC4(CCC(N5CCC6(CC5)COc5c6ccc6c5CN(C5CCC(=O)NC5=O)C6=O)CC4)C3)cc2F)N1CC(F)F (stereo partly shown)", "F"),
    ("O=C1CCC(N2Cc3cc4c(cc3C2=O)CCC2(CN(C(=O)C3CCC5(CC3)CN(c3ccc([C@@H]6c7ccc(O)cc7CC[C@@H]6c6ccccc6)cc3)C5)C2)O4)C(=O)N1 (stereo partly shown)", "F"),
    ("O=C1CCC(N2Cc3cc4c(cc3C2=O)OC2(CC4)CN(C3CC4(C3)CC3(CCN(c5ccc([C@@H]6c7ccc(O)cc7CC[C@@H]6c6ccccc6)cc5)CC3)C4)C2)C(=O)N1 (stereo partly shown)", "T"),
]

Pending molecule:
Problem: For the molecule C[C@@H]1Cc2c(ccc3[nH]ncc23)[C@@H](c2c(F)cc(N3CCC(C(=O)N4CCC(N5CCC6(CC5)COc5c6ccc6c5CN(C5CCC(=O)NC5=O)C6=O)CC4)CC3)cc2F)N1CC(F)F (stereo partly shown) , is IC50 under 10 nM?
T

###

assay system: ERα (Homo sapiens, UniProt P03372)
test name: Degradation of ERα in MCF-7 cells (immunoblotting, 4 h)
Assay type: cell-based
measurement setup: 10nM compound
parameter: Degradation rate (%) of ERα in MCF-7 cells
Express the result in % but write the number alone.

# molecule, unit spec, measured number
records = [
    ("CCC(C(=O)N1CCC2(CC1)COc1c2ccc2c1CN(C1CCC(=O)NC1=O)C2=O)N1CCC2(CCN(c3ccc([C@@H]4c5ccc(O)cc5CC[C@@H]4c4ccccc4)cc3)CC2)C1 (some centres unmarked) [A95]", "%", 48),
    ("O=C1CCC(N2Cc3c(ccc4c3OCC43CCN(CC4CN(C(=O)C5CCN(c6ccc([C@@H]7c8ccc(O)cc8CC[C@@H]7c7ccccc7)cc6)CC5)C4)CC3)C2=O)C(=O)N1 (some centres unmarked) [D5]", "%", 58),
    ("CN(C[C@H]1CC[C@H](C(=O)N2CCC3(CC2)COc2c3ccc3c2CN(C2CCC(=O)NC2=O)C3=O)CC1)[C@H]1CCN(c2ccc([C@@H]3c4ccc(O)cc4CC[C@@H]3c3ccccc3)cc2)C[C@H]1F (some centres unmarked) [D13]", "%", 68),
    ("O=C1CCC(N2C(=O)c3ccc4c(c3C2=O)OCC42CCN(CC3CCN(c4ccc([C@@H]5c6ccc(O)cc6CC[C@@H]5c5ccccc5)cc4)CC3)CC2)C(=O)N1 (some centres unmarked) [H4]", "%", -7),
]

What value of measured Degradation rate (%) of ERα in MCF-7 cells is listed for O=C1CCC(N2Cc3cc4c(cc3C2=O)OC2(CC4)CN(CC3CCC4(CC3)CCN(c3ccc([C@@H]5c6ccc(O)cc6CC[C@@H]5c5ccccc5)cc3)CC4)C2)C(=O)N1 (some centres unmarked) [A37] ?
8

Then O=C1CCC(N2C(=O)c3cc4c(cc3C2=O)C2(CCN(CC3CCC5(CC3)CCN(c3ccc([C@@H]6c7ccc(O)cc7CC[C@@H]6c6ccccc6)cc3)CC5)CC2)CO4)C(=O)N1 (some centres unmarked) [A36] ?
-14

Then O=C1CCC(N2Cc3c(ccc4c3OCC43CCN(C(=O)C4CCC5(CC4)CCN(c4ccc([C@@H]6c7ccc(O)cc7CC[C@@H]6c6ccccc6)cc4)CC5)CC3)C2=O)C(=O)N1 (some centres unmarked) [L27] ?
52

Then CN(C)C(=O)[C@@H]1CC(N2CCC3(CC2)COc2c3ccc3c2CN(C2CCC(=O)NC2=O)C3=O)CCN1C(=O)C1CCN(c2ccc([C@@H]3c4ccc(O)cc4CC[C@@H]3c3ccccc3)cc2)CC1 (some centres unmarked) [K29] ?
66

Then O=C1CCC(N2Cc3cc4c(cc3C2=O)OC2(CC4)CN(C(=O)CN3CCC4(CCN(c5ccc([C@@H]6c7ccc(O)cc7CC[C@@H]6c6ccccc6)cc5)CC4)C3)C2)C(=O)N1 (some centres unmarked) [A77] ?
61

Then O=C1CCC(N2Cc3cc4c(cc3C2=O)CCC2(CN(CC3CC5(CCN(c6ccc([C@@H]7c8ccc(O)cc8CC[C@@H]7c7ccccc7)cc6)CC5)C3)C2)O4)C(=O)N1 (some centres unmarked) [B12] ?
-11

Then C[C@@H]1Cc2c(ccc3[nH]ncc23)C(c2ccc(N3CCC4(CCN(C(=O)CN5CCC6(CC5)COc5c6ccc6c5CN(C5CCC(=O)NC5=O)C6=O)C4)CC3)cn2)N1CC(F)(F)F (some centres unmarked) [J14] ?
39
